pIC50: −log10 of the molar value.
The next entries give measured pIC50 for human eIF4E protein (Homo sapiens).

# count of solved cases: 4
Cc1cc(-c2cc(Cl)ccc2OCCn2c(C)nc3c(c2=O)C[C@H](N2CCC[C@@]4(C2)CC4(F)F)CC32CC2)c2scc(C(=O)O)c2n1 (single isomer, unassigned) [Compound 580] | > 7.00
CO[C@@H](C1CCN([C@H]2CCc3nc(C)n(CCOc4ccc(Cl)cc4-c4cc(C)nc5c(C(=O)O)csc45)c(=O)c3C2)CC1)C(F)(F)F (single isomer, unassigned) [Compound 562] | > 7.00
COC1CCN(C2CCc3nc(C)n(CCOc4ccc(Cl)cc4-c4cc(C)nc5c(C(=O)NC6CC(F)(F)C6)csc45)c(=O)c3C2)CC1 (centres unmarked) [Compound 144] | 5.30 to 6.30
Cc1cc(-c2cc(Cl)ccc2OCCn2c(C)nc3c(c2=O)C[C@@H](N2CCC[C@H](C(F)(F)F)C2)CC3)c2scc(C(=O)O)c2n1 (single isomer, unassigned) [Compound 384] | > 7.00

Need pIC50 of Cc1cc(-c2cc(Cl)ccc2OCCn2c(C)nc3c(c2=O)CC(N2CCc4nc[nH]c4C2)CC3)c2scc(C(=O)O)c2n1 (centres unmarked) [Compound 155] , thanks.
> 7.00
